Value source: PubChem BioAssay (NCI)

# Test system: MDA-MB-231 breast
# METHOD DESCRIPTION: NCI-60 one-dose screen, 48 h
# EXPERIMENTAL CONDITIONS: 10 µM unless noted
The panel holds about 83,000 compounds, 20% with a hit somewhere; the sample as a whole holds those more often. Activity calls are given as the source filed them. How the source made its calls: active means growth percent below 10; inactive means the rest.
Please answer using one outcome listed in 1.0 for active, 0.0 for inactive

Below, 4 compounds whose answers are already recorded.
Cn1ncc2ncc(-c3ccc4ncc(C#N)c(N5CCc6cc(F)c(Cl)cc65)c4c3)cc21: 0.0
Cc1ccc(-c2cc3nc(C(Cl)Cl)nc(-c4ccc(S(=O)(=O)N(C)C)cc4)n3n2)cc1: 0.0
CC(C)(C)OC(=O)NCc1ccc(CNc2c([N+](=O)[O-])cnc3ccccc23)cc1: 0.0
N#Cc1c(-c2ccc(Br)cc2)cc(-c2c[nH]c3ccccc23)nc1N: 0.0

[ask] Fill in: this test's call for CCOC(=O)c1c(NC(=O)c2ccc(C(F)(F)F)cc2)sc2c(CN3CCN(C)CC3)c(O)ccc12 is ___
[reply] 1.0

[ask] Fill in: this test's call for CC(C)(C)c1cc(NC(=O)Nc2ccc(-c3cn4c5c(sc4n3)CCc3c[nH]cc3-5)cc2)no1 is ___
[reply] 0.0

[ask] Fill in: this test's call for Cc1ccc(-c2csc(N/N=C/c3cccs3)n2)cc1 is ___
[reply] 0.0

[ask] Fill in: this test's call for O=[N+]([O-])c1ccc(NC(=S)NNC(=S)Nc2ccc(F)cc2)cc1 is ___
[reply] 0.0

[ask] Fill in: this test's call for CN1CCN(Cc2ccc(NC(=O)c3cncc(C#Cc4cnc5ccc(N6CCOCC6)nn45)c3)cc2C(F)(F)F)CC1 is ___
[reply] 1.0

----------
# System: K-562 leukemia
# METHOD DESCRIPTION: NCI-60 one-dose screen, 48 h (100 = growth as untreated, 0 = no growth, -100 = all killed)
# EXPERIMENTAL CONDITIONS: 10 µM unless noted
The panel holds about 83,000 compounds, 20% with a hit somewhere; the sample as a whole holds those more often.
Returns one of 1 or -1; 1 when growth is >= 20%.

Below, 5 molecules whose answers are already recorded.
CCNC(=O)Oc1ccc(/C(=C(/C)c2ccc(Cl)cc2)c2ccc(OCCN3CCCCCC3)cc2)cc1: -1
O=S(=O)(NCCCNc1nccc(-c2[nH]c(-c3ccccc3)nc2-c2ccc(F)c(O)c2)n1)c1ccccc1: 1
NS(=O)(=O)c1ccc(Nc2nc(N/N=C/c3ccc4c(c3)OCO4)nc(Nc3ccccc3)n2)cc1: 1
FC(F)(F)c1cc(Br)cc(-c2cc(-c3ccc4c(c3)OCCO4)[nH]n2)c1: -1
CC(C)(C)OC(=O)Nc1ccc(-c2cccc(Oc3ccc4nnc(Cl)n4n3)c2)cc1: 1

[ask] Threshold query (growth >= 20%) on CN(C)S(=O)(=O)c1ccc(-c2nc(C(Cl)Cl)nc3cc(-c4ccc(F)cc4)nn23)cc1
[reply] -1

[ask] Threshold query (growth >= 20%) on NC(=O)n1c(=O)n(-c2cccc(C(F)(F)F)c2)c(=O)c2cc(-c3ccc(F)cc3F)ccc21
[reply] -1

[ask] Threshold query (growth >= 20%) on Cc1cc2nc(C(Cl)Cl)nc(-c3ccc(S(=O)(=O)N(C)C)cc3)n2n1
[reply] -1

[ask] Threshold query (growth >= 20%) on Cc1cc(=O)oc2cc(OCCCOc3ccc(/C=C/C(=O)Nc4ccc(Br)cc4)cc3)ccc12
[reply] 1

[ask] Threshold query (growth >= 20%) on CNC(=O)c1cc(N2CCc3cc(NC(=O)Nc4ccc(N5CCOCC5)c(C(F)(F)F)c4)ccc32)ccn1
[reply] -1

[ask] Threshold query (growth >= 20%) on O=C(CCl)Nc1ccc(NC(=O)c2cc(Cl)ccc2O)c(Cl)c1
[reply] 1

[ask] Threshold query (growth >= 20%) on CN1CCN(Cc2ccc(NC(=O)c3cncc(C#Cc4cnc5ccc(OCCCS(C)(=O)=O)nn45)c3)cc2C(F)(F)F)CC1
[reply] -1

[ask] Threshold query (growth >= 20%) on C[C@H]1OCC2(CCN(c3cnc(C(=O)Nc4cc(F)cc5cccnc45)cn3)CC2)[C@H]1N
[reply] -1

[ask] Threshold query (growth >= 20%) on NC1[C@H]2CN(c3cnc(C(=O)Nc4cc(F)cc5cccnc45)cn3)C[C@@H]12 (stereo partly drawn)
[reply] -1

[ask] Threshold query (growth >= 20%) on O=C(COc1ccc(/C=C2\C(=O)Nc3ccc(F)cc32)cc1)Nc1ccccc1
[reply] 1

[ask] Threshold query (growth >= 20%) on CN1CCN(c2ccc(Nc3nc(NCCCNS(=O)(=O)c4cccc5ccccc45)c4sccc4n3)cc2)CC1
[reply] -1

[ask] Threshold query (growth >= 20%) on Cc1cc(=O)[nH]c(O)c1C#N
[reply] 1

[ask] Threshold query (growth >= 20%) on Cc1[nH]c(C(=O)Nc2ccccc2OCc2cccc(C(=O)NCCN)c2)cc1Cl
[reply] -1

[ask] Threshold query (growth >= 20%) on Cc1cc(C)cc(NC2=C(Cl)C(=O)c3nc(C)ccc3C2=O)c1
[reply] -1

[ask] Threshold query (growth >= 20%) on CCOC(=O)c1c(N)c(C#N)cn1Cc1ccc(Cl)cc1Cl
[reply] 1

[ask] Threshold query (growth >= 20%) on COc1ccc(NC(=O)CCCCCCNC(=O)C(O)(O)C(F)(F)F)cc1
[reply] 1

----------
# Test system: IGROV1 ovarian
# METHOD DESCRIPTION: NCI-60 one-dose screen, 48 h (100 = growth as untreated, 0 = no growth, -100 = all killed)
# EXPERIMENTAL CONDITIONS: 10 µM unless noted
The panel holds about 83,000 compounds, 20% with a hit somewhere; the sample as a whole holds those more often. Active and inactive are the calls of the source. How the source made its calls: active means growth percent below 10; inactive means the rest.
MEASURED METRIC: growth

Some compounds with known growth results, for comparison:
O=C(CSc1nc2ccccc2c(=O)n1-c1ccccc1)N/N=C/c1ccc(Oc2ccc(Cl)cc2)cc1: 49.1% (inactive)
CN(C)CCCOc1ccc(C(=C(c2ccccc2)C2CCCC2)c2ccc(OCCCN(C)C)cc2)cc1: -84.7% (active)
C/C(=N/N)c1nnn(-c2ccc(Br)cc2)c1C: 95.1% (inactive)
COc1ccc2c(c1)c(-c1nn3cc(-c4ccncc4)nc3s1)cn2C: 70.3% (inactive)
CCNC(=O)Oc1ccc(/C(=C(/C)c2ccc(Cl)cc2)c2ccc(OCCN3CCCCCC3)cc2)cc1: 49.5% (inactive)
CNc1sc(S(=O)(=O)NC)nc1S(=O)(=O)c1ccc(C)cc1: 95.1% (inactive)
O=C(CCCCCCN1CC(=O)N2[C@@H](c3cccs3)c3[nH]c4ccccc4c3C[C@H]2C1=O)NO: 94.3% (inactive)
CN1CCN(c2ccc(Nc3nc(NCCNS(=O)(=O)c4ccccc4)c4sccc4n3)cc2)CC1: 95.9% (inactive)
CCS(=O)(=O)Nc1ccc(C(=O)CC2(O)C(=O)Nc3ccccc32)cc1 (stereo not given): 90% (inactive)
CC1=C(C)C(=O)C(Nc2cccc(C(=O)OC(C)(C)C)c2)=CC1=O: 72.9% (inactive)

[ask] Entry under review: Fc1cccc(Cl)c1/C=N/Nc1nc(N/N=C/c2c(F)cccc2Cl)nc(N2CCCCC2)n1 . Reported growth?
[reply] 17.7% (inactive)

[ask] Entry under review: C#CCOc1ccccc1C(OC(=O)c1ccccc1)C(=O)NC(C)(C)C(C)(C)C (stereo not given) . Reported growth?
[reply] 68.9% (inactive)

[ask] Entry under review: C#C[C@]1(O)CC[C@H]2[C@@H]3CC=C4c5sc(NCc6ccccc6)nc5CC[C@]4(C)[C@H]3CC[C@@]21C . Reported growth?
[reply] 76.8% (inactive)

[ask] Entry under review: COC(=O)N1CCN(CCNCc2ccc(NC(=O)c3ccc(C)c(C#Cc4cnc5cccnn45)c3)cc2C(F)(F)F)CC1 . Reported growth?
[reply] 11.3% (inactive)

----------
Examples of molecules with documented growth follow.
# Test system: U251 CNS
# METHOD DESCRIPTION: NCI-60 one-dose screen, 48 h (100 = growth as untreated, 0 = no growth, -100 = all killed)
# EXPERIMENTAL CONDITIONS: 10 µM unless noted
Compounds without any hit were thinned out: in the full panel of roughly 83,000, 20% have a hit.
Give the quantity in %, number only.

Some molecules with known growth results, for comparison:
CCOC(=O)C(=O)Nc1ccc2c(ccn2C(=O)c2cccc(F)c2)c1: 105
COc1ccc(C2C(C#N)=C(/N=C/c3ccc(Cl)cc3)Oc3c2sc2c(C)cccc32)cc1 (stereo not drawn): 14.1
CC[C@H](CC[C@@H](C)[C@H]1CC[C@H]2[C@@H]3CC(=O)C4=CC(=O)/C(=C/c5ccc([N+](=O)[O-])cc5)C[C@]4(C)[C@H]3CC[C@]12C)C(C)C: 100
CN(C)CC(=O)Nc1nc(-c2cccc(NS(=O)(=O)c3cccc4c(N(C)C)cccc34)c2)cs1: 83.4

[ask] Entry under review: CS(=O)(=O)c1nccc(-c2c(-c3cccc(OCc4ccc(Cl)c(C(F)(F)F)c4)c3)nc3sccn23)n1 . Reported growth?
[reply] 98.3

[ask] Entry under review: O=C(CN1CCN(c2cc(=O)[nH]c3ccc(F)cc23)CC1)N(c1ccccc1)c1ccccc1 . Reported growth?
[reply] 107

[ask] Entry under review: CCOc1cccc(/C(N)=N/C(N)=N/c2nc3ccccc3s2)c1 . Reported growth?
[reply] 58.3

[ask] Entry under review: NC1[C@H]2CN(c3cnc(C(=O)Nc4cc(F)cc5cccnc45)cn3)C[C@@H]12 (stereo partly drawn) . Reported growth?
[reply] 60.7
